All figures here come from patent US20250154277A1.

- test.target: T1, human 5T4-His protein (human, UniProt Q13641 32-355)
- T1 construct: also called recombinant 5T4 protein (human 5T4-his tag); human 5T4 protein; not shown: His tag
- T1 sequence (looked up): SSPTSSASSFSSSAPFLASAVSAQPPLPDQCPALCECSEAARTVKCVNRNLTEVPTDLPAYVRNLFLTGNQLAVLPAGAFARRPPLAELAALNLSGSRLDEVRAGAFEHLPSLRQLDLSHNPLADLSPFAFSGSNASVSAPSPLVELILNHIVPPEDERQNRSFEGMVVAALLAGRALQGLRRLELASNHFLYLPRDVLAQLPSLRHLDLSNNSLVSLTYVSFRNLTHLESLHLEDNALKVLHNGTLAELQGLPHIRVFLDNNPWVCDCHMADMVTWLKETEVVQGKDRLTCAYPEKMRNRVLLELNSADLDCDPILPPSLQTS
- method.notes: SPR Biacore, Protein A capture, 50 nM 5T4-His
property.measured: log10 Kd (log10 of the value in nM)

binder: Hu159D5-7 (antibody, V domains shown, humanized) VH: EVQLVESGGGVVQPGRSLRLSCAASGFTFSNFGMHWVRQAPGKGLEWVAYISSGSSTFYYADSVKGRFTISRDNSKNTLYLQMNSLRAEDTAVYFCARSPAYYRYGLDYWGQGTTVTVSS VL: DIVMTQTPLSLSVTPGQPASISCRASQSVSSSTFSYMHWYQQKPGQPPQLLIYSSSNLESGVPDRFSGSGSGTDFTLKISRVEAEDVGVYYCQHSWEIPYTFGGGTKVEIK
measured: 0.06
//
binder: Hu159D5-9 (antibody, V domains shown, humanized) VH: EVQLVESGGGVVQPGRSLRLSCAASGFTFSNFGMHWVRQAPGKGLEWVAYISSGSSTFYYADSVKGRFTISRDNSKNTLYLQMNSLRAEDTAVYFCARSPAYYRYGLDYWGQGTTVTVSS VL: DIVLTQTPLSLSVTPGQPASISCRASQSVSSSTFSYMHWYQQKPGQPPQLLIKSSSNLESGVPDRFSGSGSGTDFTLKISRVEAEDVGVYYCQHSWEIPYTFGGGTKVEIK
measured: -0.13
//
binder: Hu159D5-5 (antibody, V domains shown, humanized) VH: EVQLVESGGGVVQPGRSLRLSCAASGFTFSNFGMHWVRQAPGKGLEWVAYISSGSSTFYYADSVKGRFTISRDNSKNTLYLQMNSLRAEDTAVYYCARSPAYYRYGLDYWGQGTTVTVSS VL: DIVMTQSPDSLAVSLGERATINCRASQSVSSSTFSYMHWYQQKPGQPPKLLIKSSSNLESGVPDRFSGSGSGTDFTLTISSLQAEDVAVYYCQHSWEIPYTFGGGTKVEIK
measured: 1.00
//
binder: Hu159D5-11 (antibody, V domains shown, humanized) VH: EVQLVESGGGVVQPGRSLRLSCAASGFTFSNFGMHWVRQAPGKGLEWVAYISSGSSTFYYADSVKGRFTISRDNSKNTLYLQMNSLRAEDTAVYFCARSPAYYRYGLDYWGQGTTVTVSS VL: DIVMTQSPDSLAVSLGERATINCRASQSVSSSTFSYMHWYQQKPGQPPKLLIKSSSNLESGVPDRFSGSGSGTDFTLTISSLQAEDVAVYYCQHSWEIPYTFGGGTKVEIK
measured: 0.03
//
binder: Hu159D5-1 (antibody, V domains shown, humanized) VH: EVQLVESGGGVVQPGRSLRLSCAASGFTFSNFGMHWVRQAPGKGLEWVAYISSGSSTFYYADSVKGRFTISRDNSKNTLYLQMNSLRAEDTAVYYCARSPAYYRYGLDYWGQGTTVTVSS VL: DIVMTQTPLSLSVTPGQPASISCRASQSVSSSTFSYMHWYQQKPGQPPQLLIYSSSNLESGVPDRFSGSGSGTDFTLKISRVEAEDVGVYYCQHSWEIPYTFGGGTKVEIK
measured: 0.60
